- PROTOCOL_DETAILS: gradient 5% acetonitrile 3 min, to 50% in 2 min, to 85% in 15 min, held 3 min, 100 µL/min
- TEST_PARAMETERS: column: Zorbax Extend-C18 2.1 x 50 mm; eluents: water / acetonitrile, 0.1% formic acid
So I've got a bunch of molecules here, and I need their RP-LC retention time values.
Note to self: number, then unit, no commentary.

Q. Sample COCCNC(=O)CC1CCN(C(=O)c2[nH]c(C)c(C)c2C)CC1 — what was its RP-LC retention time?
A. 657 s

Q. Sample Cc1ccc(-c2cc3c(=O)n(Cc4noc(CN5CCCCC5C)n4)ccn3n2)cc1 (centres undefined) — what was its RP-LC retention time?
A. 674 s

Q. Sample O=C(Nc1cnc(N2CCCCC2)nc1)c1ccc(Br)o1 — what was its RP-LC retention time?
A. 927 s

Q. Sample CC(=O)Nc1ccc2nc(NC(=O)CCOc3ccccc3)sc2c1 — what was its RP-LC retention time?
A. 708 s

Q. Sample CSc1ccc(NC(=O)Nc2ccccc2C(N)=O)cc1 — what was its RP-LC retention time?
A. 846 s

Q. Sample O=C(c1ccc2[nH]ccc2c1)N1CCN(C(=O)c2nnn3c2COC(c2ccccc2)C3)CC1 (centres undefined) — what was its RP-LC retention time?
A. 793 s

Q. Sample Cc1ccc2c(c1)N(C(=O)Cn1cc(-c3noc(-c4ccncc4)n3)nc1C)CCO2 — what was its RP-LC retention time?
A. 735 s

Q. Sample COC(=O)N1CCN(CCNC(=O)Cc2ccc(SC(C)C)cc2)CC1 — what was its RP-LC retention time?
A. 584 s

Q. Sample COc1ccc(Cc2nc(-c3ccc4nnc(C)n4c3)no2)cc1OC — what was its RP-LC retention time?
A. 724 s

* * *

- PROTOCOL_DETAILS: gradient 5% acetonitrile 3 min, to 50% in 2 min, to 85% in 15 min, held 3 min, 100 µL/min
- TEST_PARAMETERS: column: Zorbax Extend-C18 2.1 x 50 mm; eluents: water / acetonitrile, 0.1% formic acid
MEASUREMENT_LABEL: RP-LC retention time (s)
Give your result in s as a bare value.

Q. Sample CCN1C(=O)c2cccnc2Sc2cc(NC(=O)c3ccccn3)ccc21 — what was its RP-LC retention time?
A. 802

Q. Sample CN(C)c1ccc(N2C=C(C(=O)N3CCCCC3)S(=O)(=O)c3ccccc32)cc1 — what was its RP-LC retention time?
A. 898

Q. Sample CN(C1CCc2nn(Cc3ccccc3)c(=O)n2CC1)S(C)(=O)=O (stereo not given) — what was its RP-LC retention time?
A. 666

Q. Sample C=Cc1ccc(Cn2nc3c(S(=O)(=O)N4CCc5ccccc5C4)cccn3c2=O)cc1 — what was its RP-LC retention time?
A. 1050

Q. Sample O=C(c1ccoc1)N1CCC(c2noc(C3CC3)n2)C1 (stereo not given) — what was its RP-LC retention time?
A. 694

* * *

- PROTOCOL_DETAILS: gradient 5% acetonitrile 3 min, to 50% in 2 min, to 85% in 15 min, held 3 min, 100 µL/min
- TEST_PARAMETERS: column: Zorbax Extend-C18 2.1 x 50 mm; eluents: water / acetonitrile, 0.1% formic acid
So I've got a bunch of compounds here, and I need their RP-LC retention time values.
Give your result in s as a bare value.

Q. Sample CC1Oc2ccccc2OC1C(=O)NCc1ccsc1 (stereo not given) — what was its RP-LC retention time?
A. 832

Q. Sample Cc1ccc(NC(=O)C(=O)NCC2CCN(S(C)(=O)=O)CC2)cc1N1CCCC1=O — what was its RP-LC retention time?
A. 627

Q. Sample Cc1nc2nc(-c3ccccc3)nn2c(C)c1CC(=O)N1CCCCC1C (stereo not given) — what was its RP-LC retention time?
A. 836

Q. Sample Nc1cc(C2CCN(C(=O)/C=C/c3ccccc3Cl)CC2)no1 — what was its RP-LC retention time?
A. 747

Q. Sample O=C(CSc1nnc(COc2ccccc2Cl)o1)Nc1nc(-c2ccccc2)cs1 — what was its RP-LC retention time?
A. 917
